Molecular target: human FLT3 protein (FLT3 (WT)) (Homo sapiens)
Construct: human FLT3 protein (intracellular region, 564 to 993 aa); GST; purchased Carna Biosciences; host or cells: baculovirus expression system
Sequence (P36888 564-993): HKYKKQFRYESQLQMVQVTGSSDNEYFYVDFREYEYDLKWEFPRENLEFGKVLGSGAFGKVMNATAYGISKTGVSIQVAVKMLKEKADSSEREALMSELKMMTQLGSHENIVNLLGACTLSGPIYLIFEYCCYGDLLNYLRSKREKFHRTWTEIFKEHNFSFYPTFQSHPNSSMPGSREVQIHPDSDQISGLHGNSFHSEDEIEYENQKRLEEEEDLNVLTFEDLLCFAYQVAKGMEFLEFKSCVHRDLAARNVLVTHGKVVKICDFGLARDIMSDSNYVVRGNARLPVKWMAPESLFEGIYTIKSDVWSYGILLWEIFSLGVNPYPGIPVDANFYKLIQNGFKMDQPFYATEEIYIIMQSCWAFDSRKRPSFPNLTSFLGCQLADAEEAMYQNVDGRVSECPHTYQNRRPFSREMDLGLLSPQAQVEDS
Assay: FLT3 inhibition test (FLT3 enzyme inhibition, time-resolved fluorescence of substrate peptide phosphorylation)
Type: biochemical
Details: GST-fused human FLT3 (564 to 993 aa), ATP 50 μM; read-out: FLT3 (WT) enzyme inhibition activity
The following compounds are shown together with reported IC50 values.

A selection of reference data follows.
{"columns": ["compound", "parameter_measured", "assay_result"],
 "data": [
  ["COc1ccc(Nc2nc(Nc3ccc(F)nc3)ncc2C#CCCCNC(=O)[C@H](C)N(C)C(=O)/C=C/CN(C)C)cc1 [Compound 7-22]", "IC50", "< 10 nM"],
  ["C=CC(=O)NCC(=O)N(C)c1cccc(NC(=O)c2cnc(NCCc3ccncc3)nc2NCCC)c1 [Compound 1-5]", "IC50", "10 to 100 nM"],
  ["CCCNc1nc(Nc2ccc(C#N)cc2)ncc1C#CC(C)(C)CCNC(=O)[C@H](C)N(C)C(=O)/C=C/CN(C)C [Compound 9-26]", "IC50", "< 10 nM"]
]}

So what does the record say about IC50 for CNc1nc(Nc2ccc(OC)c(F)c2)ncc1C#C[C@H]1C[C@@H](NC(=O)[C@H](C)N(C)C(=O)/C=C/CN(C)C)C1 [Compound 13-16] ?
< 10 nM

Another compound to look at: CC(C)CCNc1nc(Nc2ccc(C#N)cc2)ncc1C#CCCCNC(=O)[C@H](C)N(C)C(=O)/C=C/CN(C)C [Compound 10-13]
< 10 nM

And for CCCN(C)c1nc(Nc2cccc(F)c2)ncc1C#CCCCNC(=O)[C@H](C)N(C)C(=O)/C=C/CN(C)C [Compound 9-5] ?
< 10 nM

Same thing, different compound: C=CC(=O)Nc1cccc(NC(=O)c2cnc(NCCc3ccncc3)nc2NCCC)c1 [Compound 2-25]
10 to 100 nM

---

Molecular target: human FLT3 protein (FLT3 (WT)) (Homo sapiens)
Construct: human FLT3 protein (intracellular region, 564 to 993 aa); GST; purchased Carna Biosciences; host or cells: baculovirus expression system
Assay: FLT3 inhibition test (FLT3 enzyme inhibition, time-resolved fluorescence of substrate peptide phosphorylation)
Type: biochemical
Conditions: GST-fused human FLT3 (564 to 993 aa), ATP 50 μM; read-out: FLT3 (WT) enzyme inhibition activity
Experimental: The FLT3 inhibition test was performed for the compounds of the present invention by the method described below. A reaction mixture in a volume of 9 μL containing the FLT3 protein and a test compound of a predetermined concentration (1.2 μg of FLT3, 100 mM HEPES, 10 mM MgCl2, 25 mM NaCl, 0.01% BSA, 1 mM DTT, pH 7.5) was left standing at 25° C. for 15 minutes. […]
pIC50: −log10 of the molar value.
Here the recorded pIC50 is given for each entry.

Reference set (5 entries):
{"columns": ["structure_smiles_string", "assay_result"],
 "data": [
  ["CN(C)C/C=C/C(=O)N1CCC[C@H]1C(=O)N[C@H]1C[C@@H](C#Cc2cnc(Nc3ccc(C#N)cc3)nc2NC2CC2)C1", "> 8.00"],
  ["C[C@@H](C(=O)NCCCC#Cc1cnc(Nc2ccc(F)nc2)nc1N1CCOCC1)N(C)C(=O)/C=C/CN(C)C", "> 8.00"],
  ["CCCNc1nc(Nc2cccc(C#N)c2)ncc1C#C[C@H]1C[C@@H](NC(=O)[C@H](C)N(C)C(=O)/C=C/CN(C)C)C1", "> 8.00"],
  ["CCCNc1nc(Nc2cncc(F)c2)ncc1C#CC(C)(C)CCNC(=O)[C@H](C)N(C)C(=O)/C=C/CN(C)C", "> 8.00"],
  ["CCCNc1nc(Nc2ccc(C#N)cc2)nc(C)c1C#CCCCNC(=O)[C@H](C)N(C)C(=O)/C=C/CN(C)C", "> 8.00"]
]}

Query: pIC50; subject: C[C@@H](C(=O)NCCCC#Cc1cnc(Nc2ccc(C#N)cc2)nc1-n1cccn1)N(C)C(=O)/C=C/CN(C)C
7.00 to 8.00

Would you kindly repeat that for COc1ccc(Nc2nc(Nc3ccc(F)cc3)ncc2C#CCCCNC(=O)CN(C)C(=O)/C=C/CN(C)C)cc1 ?
> 8.00

Moving on to the next compound: C=CC(=O)NCC(=O)Nc1cccc(NC(=O)c2cnc(Nc3ccc(C#N)cc3)nc2NCCC)c1
7.00 to 8.00

What about this compound? C=CC(=O)NCC(=O)NCCCNC(=O)c1cnc(NCCc2ccncc2)nc1NCCC
> 8.00

Also need CCCNc1nc(Nc2cccc(F)c2)ncc1C#CCCCNC(=O)[C@H](CC(C)C)N(C)C(=O)/C=C/CN(C)C , thanks.
> 8.00
